meta.source: ChEMBL document CHEMBL1287656

Tested on: Rattus norvegicus
run-description: Toxicity in anaesthetized albino rat assessed as change in heart rate at 15 mg/kg, ip after 5 mins relative to control
Assay type: organism-based
Parameters: dose 15 mg/kg, route intraperitoneal
test-context: in vivo
This listing pairs compounds with measured Activity.
readout-type: Activity (%)

• CC1(C)CC(=O)C2=C(C1)N(c1ccc(Cl)cc1)CN(c1ccc(OCC(=O)N/N=C/c3ccc([N+](=O)[O-])cc3)cc1)C2 = -2.1
• CC1(C)CC(=O)C2=C(C1)N(c1ccc(Cl)cc1)CN(c1ccccc1)C2 = 0
• COc1cc2nc(N3CCN(C(=O)c4ccco4)CC3)nc(N)c2cc1OC = 26
• CC1(C)CC(=O)C2=C(C1)N(c1ccc(Cl)cc1)CN(c1ccc(Cl)cc1)C2 = 0
• CC1(C)CC(=O)C2=C(C1)N(c1ccc(Cl)cc1)CN(c1ccc(O)cc1)C2 = 0

----------
System: Rattus norvegicus
run-description: Toxicity in anaesthetized albino rat assessed as change in heart rate at 60 mg/kg, ip after 5 mins relative to control
Format: organism-based
Set-up: dose 60 mg/kg, route intraperitoneal
test-context: in vivo
This listing pairs compounds with measured Activity.
readout-type: Activity (%)

* Cc1ccc(N2CC3=C(CC(C)(C)CC3=O)N(c3ccc(Cl)cc3)C2)cc1 | 0
* CC1(C)CC(=O)C2=C(C1)N(c1ccc(Cl)cc1)CN(c1ccc(OCC(=O)N/N=C/c3ccc([N+](=O)[O-])cc3)cc1)C2 | -6.2
* CC1(C)CC(=O)C2=C(C1)N(c1ccc(Cl)cc1)CN(c1ccc(Cl)cc1)C2 | 6
* CC1(C)CC(=O)C2=C(C1)N(c1ccc(Cl)cc1)CN(c1ccccc1)C2 | 12
* COc1cc2nc(N3CCN(C(=O)c4ccco4)CC3)nc(N)c2cc1OC [PRAZOSIN] | -5.1
* CC1(C)CC(=O)C2=C(C1)N(c1ccc(Cl)cc1)CN(c1ccc(OCC(=O)N/N=C/c3ccccc3)cc1)C2 | 0
* Cc1ccc(/C=N/NC(=O)COc2ccc(N3CC4=C(CC(C)(C)CC4=O)N(c4ccc(Cl)cc4)C3)cc2)cc1 | -6.3

----------
System: Rattus norvegicus
run-description: Toxicity in anaesthetized albino rat assessed as change in heart rate at 5 mg/kg, ip after 5 mins relative to control
Format: organism-based
Parameters: dose 5 mg/kg, route intraperitoneal
test-context: in vivo
readout-type: Activity (%)

* CC1(C)CC(=O)C2=C(C1)N(c1ccc(Cl)cc1)CN(c1ccc(O)cc1)C2 | 0
* Cc1ccc(N2CC3=C(CC(C)(C)CC3=O)N(c3ccc(Cl)cc3)C2)cc1 | 0
* CC1(C)CC(=O)C2=C(C1)N(c1ccc(Cl)cc1)CN(c1ccc(OCC(=O)N/N=C/c3ccccc3)cc1)C2 | 0
* COc1cc2nc(N3CCN(C(=O)c4ccco4)CC3)nc(N)c2cc1OC | 30
* CC1(C)CC(=O)C2=C(C1)N(c1ccc(Cl)cc1)CN(c1ccc(Cl)cc1)C2 | 0
* CC1(C)CC(=O)C2=C(C1)N(c1ccc(Cl)cc1)CN(c1ccc(OCC(=O)N/N=C/c3ccc([N+](=O)[O-])cc3)cc1)C2 | 0
* Cc1ccc(/C=N/NC(=O)COc2ccc(N3CC4=C(CC(C)(C)CC4=O)N(c4ccc(Cl)cc4)C3)cc2)cc1 | -2
* CC1(C)CC(=O)C2=C(C1)N(c1ccc(Cl)cc1)CN(c1ccccc1)C2 | 0

----------
This listing pairs compounds with measured Activity.
Tested on: Rattus norvegicus
run-description: Toxicity in anaesthetized albino rat assessed as change in heart rate at 15 mg/kg, ip after 5 mins relative to control
Format: organism-based
Parameters: dose 15 mg/kg, route intraperitoneal
test-context: in vivo
readout-type: Activity (%)

- Cc1ccc(/C=N/NC(=O)COc2ccc(N3CC4=C(CC(C)(C)CC4=O)N(c4ccc(Cl)cc4)C3)cc2)cc1: -5
- Cc1ccc(N2CC3=C(CC(C)(C)CC3=O)N(c3ccc(Cl)cc3)C2)cc1: 0
- CC1(C)CC(=O)C2=C(C1)N(c1ccc(Cl)cc1)CN(c1ccc(OCC(=O)N/N=C/c3ccccc3)cc1)C2: -4

----------
Tested on: Rattus norvegicus
run-description: Hypotensive activity in anaesthetized albino rat assessed as change in diastolic arterial blood pressure at 5 mg/kg, ip after 15 mins relative to control
test-context: route intraperitoneal
The label is class 1 for Activity below -10% and class 0 for Activity equal to or exceeding -10%.

• CC1(C)CC(=O)C2=C(C1)N(c1ccc(Cl)cc1)CN(c1ccc(OCC(=O)N/N=C/c3ccc([N+](=O)[O-])cc3)cc1)C2 = class 1
• CC1(C)CC(=O)C2=C(C1)N(c1ccc(Cl)cc1)CN(c1ccc(Cl)cc1)C2 = class 0
• Cc1ccc(/C=N/NC(=O)COc2ccc(N3CC4=C(CC(C)(C)CC4=O)N(c4ccc(Cl)cc4)C3)cc2)cc1 = class 1
• CC1(C)CC(=O)C2=C(C1)N(c1ccc(Cl)cc1)CN(c1ccccc1)C2 = class 0
• CC1(C)CC(=O)C2=C(C1)N(c1ccc(Cl)cc1)CN(c1ccc(O)cc1)C2 = class 0
• COc1cc2nc(N3CCN(C(=O)c4ccco4)CC3)nc(N)c2cc1OC = class 1
• Cc1ccc(N2CC3=C(CC(C)(C)CC3=O)N(c3ccc(Cl)cc3)C2)cc1 = class 0

----------
System: Rattus norvegicus
run-description: Toxicity in anaesthetized albino rat assessed as change in heart rate at 30 mg/kg, ip after 5 mins relative to control
Type: organism-based
Set-up: dose 30 mg/kg, route intraperitoneal
test-context: in vivo
readout-type: Activity (%)

- CC1(C)CC(=O)C2=C(C1)N(c1ccc(Cl)cc1)CN(c1ccc(OCC(=O)N/N=C/c3ccc([N+](=O)[O-])cc3)cc1)C2: -2.1
- CC1(C)CC(=O)C2=C(C1)N(c1ccc(Cl)cc1)CN(c1ccc(Cl)cc1)C2: 6
- CC1(C)CC(=O)C2=C(C1)N(c1ccc(Cl)cc1)CN(c1ccc(OCC(=O)N/N=C/c3ccccc3)cc1)C2: 0
- CC1(C)CC(=O)C2=C(C1)N(c1ccc(Cl)cc1)CN(c1ccc(O)cc1)C2: 0
- Cc1ccc(/C=N/NC(=O)COc2ccc(N3CC4=C(CC(C)(C)CC4=O)N(c4ccc(Cl)cc4)C3)cc2)cc1: -6.3
- Cc1ccc(N2CC3=C(CC(C)(C)CC3=O)N(c3ccc(Cl)cc3)C2)cc1: 0
- COc1cc2nc(N3CCN(C(=O)c4ccco4)CC3)nc(N)c2cc1OC: 16
- CC1(C)CC(=O)C2=C(C1)N(c1ccc(Cl)cc1)CN(c1ccccc1)C2: 6.25

----------
System: Rattus norvegicus
run-description: Hypotensive activity in anaesthetized albino rat assessed as change in diastolic arterial blood pressure at 5 mg/kg, ip after 5 mins relative to control
Format: functional
test-context: route intraperitoneal
The label is 1 for Activity below -10% and 0 for Activity equal to or exceeding -10%.

• CC1(C)CC(=O)C2=C(C1)N(c1ccc(Cl)cc1)CN(c1ccccc1)C2 = 0
• CC1(C)CC(=O)C2=C(C1)N(c1ccc(Cl)cc1)CN(c1ccc(Cl)cc1)C2 = 0
• CC1(C)CC(=O)C2=C(C1)N(c1ccc(Cl)cc1)CN(c1ccc(OCC(=O)N/N=C/c3ccc([N+](=O)[O-])cc3)cc1)C2 = 1
• COc1cc2nc(N3CCN(C(=O)c4ccco4)CC3)nc(N)c2cc1OC [PRAZOSIN] = 1
• Cc1ccc(/C=N/NC(=O)COc2ccc(N3CC4=C(CC(C)(C)CC4=O)N(c4ccc(Cl)cc4)C3)cc2)cc1 = 1
• CC1(C)CC(=O)C2=C(C1)N(c1ccc(Cl)cc1)CN(c1ccc(O)cc1)C2 = 0
• Cc1ccc(N2CC3=C(CC(C)(C)CC3=O)N(c3ccc(Cl)cc3)C2)cc1 = 0
